# target-or-system: [125I]-epibatidine binding sites (α4β2-nAChR), cortex membranes (Mus musculus, UniProt O70174+Q9ERK7)
# Sequence (O70174 31-629): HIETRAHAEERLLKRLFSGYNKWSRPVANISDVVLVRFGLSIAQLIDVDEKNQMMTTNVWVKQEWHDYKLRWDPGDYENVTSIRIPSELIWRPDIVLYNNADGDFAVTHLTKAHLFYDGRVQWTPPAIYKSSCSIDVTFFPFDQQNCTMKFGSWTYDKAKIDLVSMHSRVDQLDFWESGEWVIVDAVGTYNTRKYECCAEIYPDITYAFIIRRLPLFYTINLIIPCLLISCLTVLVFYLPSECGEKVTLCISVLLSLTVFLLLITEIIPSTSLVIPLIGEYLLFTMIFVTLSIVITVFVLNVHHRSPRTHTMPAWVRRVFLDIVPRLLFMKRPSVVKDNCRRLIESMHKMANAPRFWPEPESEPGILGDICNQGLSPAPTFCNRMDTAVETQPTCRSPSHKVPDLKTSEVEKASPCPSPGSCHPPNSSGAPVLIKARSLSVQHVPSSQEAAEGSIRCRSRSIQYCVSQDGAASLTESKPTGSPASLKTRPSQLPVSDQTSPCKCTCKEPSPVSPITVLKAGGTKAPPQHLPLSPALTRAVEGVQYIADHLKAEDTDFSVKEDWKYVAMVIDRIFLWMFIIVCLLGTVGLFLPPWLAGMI
# Sequence (Q9ERK7 26-501): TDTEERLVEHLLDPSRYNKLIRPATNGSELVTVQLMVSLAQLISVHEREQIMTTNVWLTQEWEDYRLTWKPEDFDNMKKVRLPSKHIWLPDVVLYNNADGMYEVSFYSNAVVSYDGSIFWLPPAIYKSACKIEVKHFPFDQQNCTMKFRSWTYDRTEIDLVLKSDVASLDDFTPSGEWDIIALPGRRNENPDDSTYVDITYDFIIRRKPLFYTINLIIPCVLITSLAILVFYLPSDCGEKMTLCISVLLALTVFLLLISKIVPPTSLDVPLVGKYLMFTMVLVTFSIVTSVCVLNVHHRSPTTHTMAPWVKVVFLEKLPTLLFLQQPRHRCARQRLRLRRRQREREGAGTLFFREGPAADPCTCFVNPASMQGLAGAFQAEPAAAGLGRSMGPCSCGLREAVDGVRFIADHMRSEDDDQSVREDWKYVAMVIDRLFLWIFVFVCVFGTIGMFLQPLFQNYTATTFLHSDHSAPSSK
# assay-name: Inhibition of [125I]-epibatidine binding to cortex membranes
pKi: −log10 of the molar value.

# molecule, pKi
measured = [
    ("c1cnc2cc3c(cc2n1)[C@@H]1CNC[C@H]3C1 [Varenicline]", 9.96),
]
